test system: KM-20L2; assay: NCI tumour cell line growth inhibition, 48 h
Active and inactive are the calls of the source. Cut-off read from the data, not from the text of the source: active = GI50 up to about 1.1 µM and inactive = higher.
Permitted responses: active, inactive

What classification did N#COc1ccc(Oc2ccc(OC#N)cc2)cc1 end up with in this test? inactive

What classification did CCOC(=O)CN.CCOC(=O)Nc1ccc(S(=O)(=O)OC)cc1.CCOC(=O)Nc1ccc(S(=O)(=O)OC)cc1 end up with in this test? inactive

What classification did O=C1CCCCCCCCCCC1CN1CCCCC1 (centres undefined) end up with in this test? inactive

What classification did COCN1COCN/C1=N\C#N end up with in this test? inactive

What classification did CCCCCCCCC/C=C/C=C/C(=O)NCC(=O)NC1C(O)C(O)C(Nc2ncnc3[nH]cnc23)OC1C(O)CO (centres undefined) end up with in this test? active

What classification did Cc1cc(NCCCCCCCCNc2cc(C)nc3cc(N)ccc23)c2ccc(N)cc2n1 end up with in this test? inactive

What classification did Cc1ccc(NC(=O)CSc2nnc(Cc3ccccc3)o2)cc1 end up with in this test? inactive

What classification did Cc1ccc(S(=O)(=O)NC(C)C(=O)O)cc1 (centres undefined) end up with in this test? inactive

What classification did COC(=O)C(=C\Sc1ccccc1)/C=C/C(=O)OC(C)(C)C end up with in this test? inactive

What classification did CC(C(=O)c1ccc(O)cc1)C1(O)C(=O)Nc2c(Cl)cc(Cl)cc21 (centres undefined) end up with in this test? inactive

What classification did CC(=O)CC(=O)ON(C)C(=O)Cc1ccccc1 end up with in this test? inactive

What classification did CC1=C(/C=C/C(C)=C/C=C/C(C)=C/C(=O)O)C(C)(C)CCC1 end up with in this test? inactive

What classification did C#CCNC(=O)NC(CCCCNC(=O)OCc1ccccc1)C(=O)OCc1ccccc1 (centres undefined) end up with in this test? inactive

What classification did Cc1cc(O)c(C(=O)O)c2c1C(=O)c1c(O)c(OCC(O)C(O)C(O)C(O)CO)c(O)c(O)c1C2=O.NCCNCCO (centres undefined) end up with in this test? inactive

What classification did COc1cccc(OC)c1C(=O)OCc1ccccc1 end up with in this test? inactive

What classification did Fc1ccc(C2SCc3nc4ccccc4n32)c(F)c1 (centres undefined) end up with in this test? inactive

What classification did Cc1ccc(C2(O)CC(c3ccc([N+](=O)[O-])o3)=NN2C(=O)COc2ccccc2Cl)cc1 (centres undefined) end up with in this test? inactive

What classification did CN(c1ccccc1)c1nc(=[N+]2CCCC2)ss1.[O-][Cl+3]([O-])([O-])[O-] end up with in this test? inactive

What classification did Clc1ccc(Cl)c2[s+]snc12 end up with in this test? inactive

What classification did CN(C)[C@@H]1C(O)=C(C(=O)NCN2CCN(C(=N)NC(=N)N)CC2)C(=O)[C@@]2(O)C(O)=C3C(=O)c4c(O)cccc4[C@@](C)(O)[C@H]3C[C@@H]12 end up with in this test? active

What classification did CCCCCCCCCCCCCCCCSS(C)(=O)=O end up with in this test? inactive

What classification did COc1cc2ccc3c4cc(OC)c(OCc5ccccc5)cc4cnc3c2cc1OC end up with in this test? inactive

What classification did C/C(=N\O)C(CN(C)C)C(c1ccccc1)c1c(O)c2ccccc2oc1=O (centres undefined) end up with in this test? inactive

What classification did N#Cc1c2nc3ccccc3nc2n2ccccc12 end up with in this test? inactive

What classification did OC12CCC3(O)c4ccccc4C3C1c1ccccc12 (centres undefined) end up with in this test? inactive

What classification did Nc1ccn(C2CCC(CO)O2)c(=O)n1 (centres undefined) end up with in this test? inactive

What classification did CCNc1nnc(CSc2nc(-c3ccccc3)c(-c3ccccc3)[nH]2)s1 end up with in this test? inactive

What classification did CCOC(=O)C(Cc1ccc2ccccc2c1)(Cc1ccc2ccccc2c1)C(C)=O end up with in this test? inactive

What classification did Clc1ccc2c(c1)[nH]c1c2nc2ccccn21 end up with in this test? inactive
